tgt: TrkA and p75^NTR (PC12 cells) (Mus musculus, UniProt P01139)
Construct: PC12 cells (rat pheochromocytoma cells expressing TrkA and p75^NTR; obtained from ATCC); host or cells: PC12 rat pheochromocytoma cells (intact, in suspension)
Sequence (P01139 122-241): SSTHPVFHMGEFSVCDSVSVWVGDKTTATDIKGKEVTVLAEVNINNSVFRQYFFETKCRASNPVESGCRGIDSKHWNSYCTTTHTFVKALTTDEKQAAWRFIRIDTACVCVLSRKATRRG
experimental_protocol: 125I-NGF receptor binding to PC12 cells in the presence of competitor
Design: species or system rat
reported_conditions: compound 50 μM; 125I-NGF 1 nM; 2 h at 4° C.; average of three values
endpoint_label: PC12 % of Max, Avg

compound	endpoint_result
O=C(O)CCCCCN1C(=O)c2ccc([N+](=O)[O-])cc2C1=O [Compound 144, 4-nitro-N-(5-carboxypentyl)phthalimide]	= 78 % of Max
O=C(O)CCCCN1C(=O)c2ccc([N+](=O)[O-])cc2C1=O [Compound 143, 4-nitro-N-(4-carboxybutyl)phthalimide]	= 78 % of Max
